- System: L1210 leukemia ip in BDF1 mice, survival T/C
- method: NCI In Vivo Anticancer Drug Screen. Data for tumor model L1210 Leukemia (intraperitoneal) in B6D2F1 (BDF1) mice
- test-parameters: endpoint: mean survival time; dose: 25.0 mg/kg/injection; schedule: Q04DX002 (ip); vehicle: Klucel (hydroxypropylcellulose) (HPC); higher = longer survival
- Protocol: The antitumor activity of compounds was measured in mice bearing transplantable tumors. Survival or tumor size were measured and the results are expressed as the measurement made in the treated group (T) divided by the measurement made in the vehicle treated control group (C). The tumor model used in this assay is L1210 Leukemia (intraperitoneal) in B6D2F1 (BDF1) mice
Inconclusive results and toxic doses are left out.
reported-endpoint: T/C

[
  {
    "structure-string": "C=CCNC(=O)Nc1ncc([N+](=O)[O-])s1",
    "T/C": "101 % of control"
  },
  {
    "structure-string": "Cc1ncc(CCl)n1Cc1ccccc1",
    "T/C": "95 % of control"
  },
  {
    "structure-string": "ON=C1CCCCCCC1",
    "T/C": "96 % of control"
  },
  {
    "structure-string": "Cc1c([N+](=O)[O-])cc(C(C)(C)C)c(O)c1[N+](=O)[O-]",
    "T/C": "112 % of control"
  }
]

With those in mind, consider the next molecule.
Measured T/C, Nc1ccccc1S(N)(=O)=O : 97 % of control
